subject_of_test: α2-adrenoceptor (Rattus norvegicus)
Construct: In anaesthetized rat, a standard dose of detomidine was administered intravenously; from tissue; host or cells: whole anaesthetized rat (pupil response, in vivo)
Sequence (P22909 whole entry): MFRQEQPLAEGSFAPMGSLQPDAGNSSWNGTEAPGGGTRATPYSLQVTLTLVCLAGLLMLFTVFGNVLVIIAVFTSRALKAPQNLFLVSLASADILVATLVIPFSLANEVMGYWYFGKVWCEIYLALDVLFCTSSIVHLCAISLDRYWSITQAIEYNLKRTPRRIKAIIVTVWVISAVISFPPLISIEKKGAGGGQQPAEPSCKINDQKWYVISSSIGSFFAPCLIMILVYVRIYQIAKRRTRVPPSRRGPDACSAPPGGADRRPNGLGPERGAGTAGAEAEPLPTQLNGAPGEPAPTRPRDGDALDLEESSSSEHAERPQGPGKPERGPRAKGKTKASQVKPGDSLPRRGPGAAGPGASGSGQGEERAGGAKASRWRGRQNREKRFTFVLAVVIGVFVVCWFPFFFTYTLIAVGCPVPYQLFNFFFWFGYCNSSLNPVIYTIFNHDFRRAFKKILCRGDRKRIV
assay_text: Duration of the α2-blocking action (time for antagonism of detomidine mydriasis to fall by half, oral)
Type: in vivo
recorded_conditions: oral at equipotent doses, time taken for antagonism of 0,1 mg/kg detomidine mydriasis to fall by half
reported_endpoint: Duration of α2-antagonism (h)

In [3]: df
Out[3]:
                                   molecule                      subject_of_test  quantitative_readout
0  CCn1cnc(C2(CC)Cc3ccccc3C2=O)c1 (centres unmarked) [compound 12]  α2-adrenoceptor (Rattus norvegicus)                  16.0
1  CCn1cnc(C2(CO)Cc3ccccc3C2)c1 [compound 10]  α2-adrenoceptor (Rattus norvegicus)                   7.0
2  COCC1(c2cn(C)cn2)Cc2ccccc2C1 [compound 7]  α2-adrenoceptor (Rattus norvegicus)                   7.0
3  CCC1(c2cnc[nH]2)Cc2ccccc2C1 [atipamezole, reference compound]  α2-adrenoceptor (Rattus norvegicus)                   1.0

(1) CCn1cnc(C2(COC)Cc3ccccc3C2)c1 [compound 11]
(2) CCC1(c2cn(C)cn2)Cc2ccccc2C1=O (centres unmarked) [compound 5]
(3) CCC1(c2cn(C)cn2)Cc2ccccc2C1 [compound 1]
Ordering criterion: Duration of α2-antagonism; begin with the maximum. To answer, arrange all of the labels according to the requested order.
2, 1, 3

Source of measurements: patent US5292887A
